- Tested System: Claudin18.2-His protein (human)
- Protocol Summary: indirect ELISA on coated Claudin18.2-His
Measurement Label: EC50 (µg/mL)
Your answer is read as µg/mL, so omit the unit and give the number.

Some binders with known EC50 results, for comparison:
263E9F3 (antibody, V domains shown) VH: EIQVQQSGPELMKPGASVKISCRSSGYSFTSYYIHWVKQSRGKSLEWIGYIDPFSGGTRYNQKFEGKATLTVDKSSTTAYMHLSSLTSEDSAVYYCASLRFFAYWGQGTLVTVSA VL: DIVMTQSPSSLTVTAGEKVTMTCKSSQSLLNSGNQENYLTWYQQKPGQPPELLISRASTRQSGVPDRFTGSGSGTDFTLTISSVQTEDLAVYYCQNDYSYPLTFGAGTKLELK
0.0113
267B2C5 (antibody, V domains shown) VH: QVQLKESGPGLVAPSQSLAITCTVSGFSLTTYGVSWVRQPPGKGLEWLGVIWGDGSTHYHSALISRLSIRKDNSKSQVFLKVNSLQTDDTATYYCGKPGRGNAMDYWGQGTSVTVSS VL: DIVMTQSPSSLTVTAGEKVTMSCKSSQSLLNSGNQKNYLTWYQQKPGQSPKLLIYWASTRESGVPDRFTGSGSGTDFTLTISSVQAEDLAVYYCQNDYIYPLTFGGGTTLELK
0.0113
257G7F7 (antibody, V domains shown) VH: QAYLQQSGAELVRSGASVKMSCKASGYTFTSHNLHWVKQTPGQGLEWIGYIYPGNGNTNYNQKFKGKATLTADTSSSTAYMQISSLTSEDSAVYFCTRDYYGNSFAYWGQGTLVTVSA VL: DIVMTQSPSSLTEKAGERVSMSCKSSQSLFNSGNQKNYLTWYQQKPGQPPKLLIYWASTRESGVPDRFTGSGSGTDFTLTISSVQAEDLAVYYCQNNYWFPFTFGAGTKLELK
0.0198

Find the recorded EC50 belonging to 198F10B8 (antibody, V domains shown) VH: QAYLQQSGAELVRSGASVRMSCKASGYTFSSYNMHWVKQTPGQGLEWIGYIYPGNGGTNYNQKFKDKATLTADTSSSTAFIQISSLTSEDSAVYFCLTGRGFAYWGQGTLVTVSA VL: DIVMTQSPSSLTVTAGERVTMSCKSSQSLFNSGNQKNYLTWYQQKPGQPPKLLIYRASTRESGVPDRFTGSGSGTDFTLTISSVQAEDLAVYYCQNDYSYPLTFGVGTKLELK and report it.
0.0315

Find the recorded EC50 belonging to 246B5F2 (antibody, IgM, V domains shown) VH: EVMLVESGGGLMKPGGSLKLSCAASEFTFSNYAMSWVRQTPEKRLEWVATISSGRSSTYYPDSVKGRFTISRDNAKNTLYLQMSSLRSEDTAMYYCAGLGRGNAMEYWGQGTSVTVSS VL: DIVMTQSPSSLTVTAGEKVTLSCKSSQSLLNSGNQKNYLTWYQQKPGQPPKLLIYWASTRESGVPDRFTGSGSGTDFILTINSVQAEDLAVYYCQNAYSYPFTFGSGTKLEIK and report it.
0.141
